Every entry's value here was drawn from patent US20260151494A1.

target: T1, human CD71 extracellular domain (CD71-ECD) (human, UniProt P02786 89-760); assay: primary ELISA, RLU ratio to HSA
T1 construct: also called hCD71; human CD71-ECD
T1 sequence (P02786 89-760): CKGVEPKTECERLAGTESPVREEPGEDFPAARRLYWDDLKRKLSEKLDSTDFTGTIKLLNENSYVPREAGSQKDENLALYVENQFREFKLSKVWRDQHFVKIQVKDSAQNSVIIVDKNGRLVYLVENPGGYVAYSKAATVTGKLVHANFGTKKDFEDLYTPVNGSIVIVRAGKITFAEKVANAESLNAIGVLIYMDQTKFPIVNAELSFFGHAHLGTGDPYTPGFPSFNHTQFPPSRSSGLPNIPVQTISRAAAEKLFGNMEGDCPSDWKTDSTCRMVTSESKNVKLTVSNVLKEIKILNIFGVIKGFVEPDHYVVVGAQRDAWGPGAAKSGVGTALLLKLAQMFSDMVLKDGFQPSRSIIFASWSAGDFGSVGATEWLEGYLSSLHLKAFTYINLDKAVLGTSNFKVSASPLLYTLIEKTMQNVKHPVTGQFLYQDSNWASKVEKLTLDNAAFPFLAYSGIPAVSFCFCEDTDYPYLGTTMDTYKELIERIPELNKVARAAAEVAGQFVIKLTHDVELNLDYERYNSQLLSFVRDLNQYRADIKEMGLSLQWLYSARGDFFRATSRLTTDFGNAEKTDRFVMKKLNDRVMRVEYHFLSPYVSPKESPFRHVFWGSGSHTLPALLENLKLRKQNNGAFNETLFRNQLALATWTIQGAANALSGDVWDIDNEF
readout: hCD71:HSA

// known answers, use as guide
1) CD71-binding FN3 domain SEQ ID NO: 332 (designed binder) MSLPAPKNLVVSRVTEDSARLSWTAPDAAFDSFEIGYWEGPGGGEAIILVVPGSERSYDLTGLKPGTEYYVQIGGVKGGDWSTPLWATFTT	131
2) CD71-binding FN3 domain SEQ ID NO: 239 (designed binder) MSLPAPKNLVVSRVTEDSARLSWTAPDAAFDSFEIVYQENSAYGEAIVLTVPGSERSYDLTGLKPGTEYWVQIGGVKGGNWSAPLSAIFTT	154
3) CD71-binding FN3 domain SEQ ID NO: 281 (designed binder) MSLPAPKNLVVSRVTEDSARLSWTAPDAAFDSFFIGYLEPQPPGEAIALYVPGSERSYDLTGLKPGTEYNVTIQGVKGGFPSEPLIANFTT	380
4) CD71-binding FN3 domain SEQ ID NO: 246 (designed binder) MSLPAPKNLVVSRVTEDSARLSWTAPDAAFDSFEIAYQELSLWGEAIVLTVPGSERSYDLTGLKPGTEYYVHIGGVKGGIWSSPLSAYFTT	362
5) CD71-binding FN3 domain SEQ ID NO: 325 (designed binder) MSLPAPKNLVVSRVTEDSARLSWTAPDAAFDSFEIGYFENLYLGEAIVLTVPGSERSYDLTGLKPGTEYWVQIGGVKGGNWSAPLSEIFTT	114
6) CD71-binding FN3 domain SEQ ID NO: 308 (designed binder) MSLPAPKNLVVSRVTEDSARMSWTTPDAAFDSFEIGYFENLYLGEAIVLTVPGSERSYDLTGLKPGTEYWVQIGGVKGGNWSAPLSAIFTT	127

1: CD71-binding FN3 domain SEQ ID NO: 267 (designed binder) MSLPAPKNLVVSRVTEDSARLSWTAPDAAFDSFEISYWEHTFNGEAIILFVPGSERSYDLTGLKPGTEYYVTIGGVKGGAWSPPLWAEFTT
2: CD71-binding FN3 domain SEQ ID NO: 301 (designed binder) MSLPAPKNLVVSRVTEDSARLSWTTPDAAFDSFEIGYFENLYLGEAIVLTVPGSERSYDLTGLKPGTEYWVQIGGVKGGNWSAPLSAIFTT
3: CD71-binding FN3 domain SEQ ID NO: 257 (designed binder) MSLPAPKNLVVSHVTEDSARLSWTAPDAAFDSFEIGYWENAYKGEAIVLTVPGSERSYDLTGLKPGTEYVVFIGGVKGGVWSVPLSAIFTT
**Query** Returns the items ordered by hCD71:HSA, from maximum to minimum. Answer format: list of labels, ordered as asked.
**Result** 3, 2, 1
(3: 378, 2: 152, 1: 92)
